TARGET_UNDER_TEST: SMARCA2 (Homo sapiens, UniProt P51531)
Sequence (P51531 whole entry): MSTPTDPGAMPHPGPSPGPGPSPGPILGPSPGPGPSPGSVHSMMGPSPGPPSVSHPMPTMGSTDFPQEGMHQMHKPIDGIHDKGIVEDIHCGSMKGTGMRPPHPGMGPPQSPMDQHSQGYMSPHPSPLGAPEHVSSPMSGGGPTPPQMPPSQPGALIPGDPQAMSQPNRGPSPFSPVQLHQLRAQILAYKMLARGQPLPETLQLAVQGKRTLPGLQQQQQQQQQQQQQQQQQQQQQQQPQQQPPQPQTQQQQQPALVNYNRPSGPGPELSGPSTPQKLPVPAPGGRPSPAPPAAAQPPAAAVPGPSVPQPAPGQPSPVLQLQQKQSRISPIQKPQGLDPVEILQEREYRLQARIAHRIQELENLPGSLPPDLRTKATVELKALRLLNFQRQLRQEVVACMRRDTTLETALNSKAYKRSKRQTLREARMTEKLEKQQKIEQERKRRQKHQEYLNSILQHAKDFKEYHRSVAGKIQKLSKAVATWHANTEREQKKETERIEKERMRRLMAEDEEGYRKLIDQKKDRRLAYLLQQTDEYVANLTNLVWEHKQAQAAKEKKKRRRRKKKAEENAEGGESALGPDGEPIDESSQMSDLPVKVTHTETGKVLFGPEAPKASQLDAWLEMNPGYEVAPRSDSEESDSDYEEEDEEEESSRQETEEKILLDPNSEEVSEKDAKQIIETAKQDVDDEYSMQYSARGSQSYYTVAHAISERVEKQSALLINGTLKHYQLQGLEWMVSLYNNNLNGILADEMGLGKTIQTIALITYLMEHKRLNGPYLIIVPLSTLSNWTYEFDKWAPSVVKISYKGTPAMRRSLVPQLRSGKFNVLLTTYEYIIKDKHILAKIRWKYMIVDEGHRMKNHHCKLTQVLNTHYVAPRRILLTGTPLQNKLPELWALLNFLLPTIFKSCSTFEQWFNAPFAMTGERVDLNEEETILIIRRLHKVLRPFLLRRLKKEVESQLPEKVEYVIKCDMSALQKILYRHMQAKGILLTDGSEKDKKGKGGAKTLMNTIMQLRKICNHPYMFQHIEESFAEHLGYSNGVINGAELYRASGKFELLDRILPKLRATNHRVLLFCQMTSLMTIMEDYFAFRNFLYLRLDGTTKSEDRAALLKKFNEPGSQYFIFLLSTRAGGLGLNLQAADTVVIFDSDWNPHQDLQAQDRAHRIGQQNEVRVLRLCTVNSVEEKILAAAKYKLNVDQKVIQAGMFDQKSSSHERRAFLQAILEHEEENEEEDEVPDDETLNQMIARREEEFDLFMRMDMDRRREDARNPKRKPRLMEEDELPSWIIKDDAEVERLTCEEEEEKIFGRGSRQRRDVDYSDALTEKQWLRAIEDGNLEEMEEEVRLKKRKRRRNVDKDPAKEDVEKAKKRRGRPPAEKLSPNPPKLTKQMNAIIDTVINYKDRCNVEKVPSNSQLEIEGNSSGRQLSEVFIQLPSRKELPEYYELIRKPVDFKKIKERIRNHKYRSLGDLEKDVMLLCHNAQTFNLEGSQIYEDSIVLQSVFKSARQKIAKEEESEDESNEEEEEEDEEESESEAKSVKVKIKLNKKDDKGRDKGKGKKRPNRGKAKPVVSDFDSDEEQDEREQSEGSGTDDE
TEST_DESCRIPTION: SMARCA2 Western blot degradation in MV4-11 cells
Format: cell-based
Design: SMARCA2/SMARCA4 protein degradation selectivity in MV4-11 cells; endogenous in cells; host or cells: MV4-11
ASSAY_CONTEXT: MV4-11 cells, 24 h; read-out: SMARCA2 MSD MV411 degradation 24 h: Mean external-Abs DC50
Field: DC50. Provide a value for each of the compounds that follow.

| COMPOUND | DC50 |
| --- | --- |
| C#Cc1ccc(CNC(=O)[C@@H]2C[C@@H](O)CN2C(=O)[C@@H](NC(=O)[C@H]2CC[C@H](c3ccc(-c4cnc(N5CCN6c7cc(-c8ccccc8O)nnc7NC[C@H]6C5)nc4)cc3)CC2)C(C)(C)C)cc1 | 10 to 100 nM |
| Cc1ncsc1-c1ccc(CNC(=O)[C@@H]2C[C@@H](O)CN2C(=O)[C@@H](NC(=O)[C@H]2CCC3(CC2)C[C@H](N2CCC4(CC2)CN(C(=O)N2CCN5c6cc(-c7ccccc7O)nnc6NC[C@H]5C2)CCO4)C3)C(C)(C)C)cc1 (single isomer, unassigned) [I-133] | 10 to 100 nM |
| C#Cc1ccc(CNC(=O)[C@@H]2C[C@@H](O)CN2C(=O)[C@@H](NC(=O)N2CC3(CC(c4cnc(N5CCC(N6CCN7c8cc(-c9ccccc9O)nnc8NC[C@H]7C6)CC5)nc4)C3)C2)C(C)(C)C)cc1 | 1 to 10 nM |

Would you be so kind as to report DC50 for each listed record?
1. C#Cc1ccc(CNC(=O)[C@@H]2C[C@@H](O)CN2C(=O)[C@@H](NC(=O)N2CCN(C[C@@H]3CCN(c4cnc(N5CCc6[nH]c7nnc(-c8ccccc8O)cc7c6[C@H]5C)nc4)C3)CC2)C(C)(C)C)cc1 (single isomer, unassigned)
2. C#Cc1ccc(CNC(=O)[C@@H]2C[C@@H](O)CN2C(=O)[C@@H](NC(=O)N2CCO[C@H](CN3CCC(N4CCC(N5CCN6c7cc(-c8ccccc8O)nnc7NC[C@H]6C5)CC4)CC3)C2)C(C)(C)C)cc1
3. C#Cc1ccc(CNC(=O)[C@@H]2C[C@@H](O)CN2C(=O)[C@H](NC(=O)N2CC3(CC(N4CCC(c5cnc(N6CCc7[nH]c8nnc(-c9ccccc9O)cc8c7[C@H]6C)nc5)CC4)C3)C2)C(C)(C)CCN2CCOCC2)cc1 (single isomer, unassigned)
4. Cc1ncsc1-c1ccc(CNC(=O)[C@@H]2C[C@@H](O)CN2C(=O)[C@@H](NC(=O)C2(F)CC2)C(C)(C)C)c(OCCN2CCC(c3cnc(N4CCN5c6cc(-c7ccccc7O)nnc6NC[C@H]5C4)nc3)CC2)c1 (single isomer, unassigned)
5. Cc1ncsc1-c1ccc(CNC(=O)[C@@H]2C[C@@H](O)CN2C(=O)C(c2cc(OCCCCN3CCC(c4cnc(N5CCN6c7cc(-c8ccccc8O)nnc7NC[C@@H]6C5)nc4)CC3)no2)C(C)C)cc1 (stereo partly shown)
6. C#Cc1ccc([C@H](C)NC(=O)[C@@H]2C[C@@H](O)CN2C(=O)[C@@H](NC(=O)N2CC3(CC(N4CCC(N5CCC(N6CCc7[nH]c8nnc(-c9ccccc9O)cc8c7[C@H]6C)CC5)CC4)C3)C2)C(C)(C)C)cc1

**A:**
1. 10 to 100 nM
2. > 100 nM
3. 10 to 100 nM
4. < 1 nM
5. < 1 nM
6. 10 to 100 nM
